The reported numbers originate from patent US11084826B2.

Below: a set of entries, each annotated with reported RSV HELA pEC50.
system: rgRSV224 virus; assay: Antiviral activity: inhibition of rgRSV224 (GFP-expressing RSV) replication in HeLa cells, GFP expression read-out; assay type: cell-based, respiratory syncytial virus (RSV); settings: rgRSV224 virus (MOI=1) in HeLa cells, GFP read-out
Just the number, please, no unit after it.

The cases that follow already have their RSV HELA pEC50 on record.
CCc1cc(C(=O)N2CCCCCC2C)nc2cc(-c3ccc4[nH]c(=O)ccc4c3)nn12 (centres unmarked)    6.47
CCc1cc(C(=O)N2CCc3sccc3[C@H]2C)nc2cc(-c3ccc(-c4ccc(C(=O)O)cn4)cc3F)nn12    7.34
CCc1cc(C(=O)N2CCc3ccccc3[C@H]2C)nc2cc(-c3ccc(C4C[C@H]4C(=O)O)cc3F)nn12 (some centres unmarked)    7.91
CCc1cc(C(=O)N2CCn3c(C)ccc3C2C)nc2cc(-c3ccc(C(N)=O)cc3F)nn12 (centres unmarked)    6.58
CCc1cc(C(=O)N2CCc3ccccc3C2C)nc2cc(-c3ccc(/C=C/C(=O)O)cc3Cl)nn12 (centres unmarked)    6.84

Query: Name the reported RSV HELA pEC50 value associated with the compound CCc1cc(C(=O)N2CCCCC[C@H]2C)nc2cc(-c3cccc(/C=C\C(=O)O)c3F)nn12
Result: 6.13

Query: Repeat with CC1CCCCCN1C(=O)c1cc(N2CCCC2)n2nc(-c3ccc(N(C)C)cc3)cc2n1 (centres unmarked)
Result: 5.34

Query: Repeat with C[C@@H]1CCCCCN1C(=O)c1cc(C2(C)CC2)n2nc(-c3cccc(/C=C/C(=O)O)c3F)cc2n1
Result: 7.34

Query: Repeat with C[C@@H]1CCCCCN1C(=O)c1cc(C2CC2)n2nc(-c3ccc(-c4ccc(C(=O)O)cn4)cc3F)cc2n1
Result: 7.28

====

Below: a set of entries, each annotated with reported TOX HELA pCC50.
test system: HeLa cells; test: Cytotoxicity in HeLa cells, ATP content measured with the ATPlite kit; assay type: cell-based
Just the number, please, no unit after it.

The cases that follow already have their TOX HELA pCC50 on record.
CC1c2ccsc2CCN1C(=O)c1cc(C2(C)CC2)n2nc(-c3cccc(/C=C/C(=O)O)c3F)cc2n1 (stereo not shown) [Compound M47]    4.07
C[C@@H]1CCCCCN1C(=O)c1cc(C2(C)CC2)n2nc(-c3cccc(/C=C/C(=O)O)c3F)cc2n1 [Compound M22]    4.05

Query: Name the reported TOX HELA pCC50 value associated with the molecule C[C@@H]1c2ccccc2CCN1C(=O)c1cc(C2(C)CC2)n2nc(-c3cccc(/C=C/C(=O)O)c3F)cc2n1 [Compound M36]
Result: 4.26

====

Below: a set of entries, each annotated with reported melting point.

CCc1cc(C(=O)N2CCCCC[C@H]2C)nc2cc(-c3ccc4ccc(C(=O)O)cc4c3F)nn12 [Compound F36]    274.48 °C
CCc1cc(C(=O)N2CCc3sccc3[C@H]2C)nc2cc(-c3ccc(-n4cc(C(=O)O)cn4)cc3F)nn12 (racemic) [Compound W40]    168.11 °C
CCc1cc(C(=O)N2CCCCCC2C)nc2cc(-c3ccc(C(N)=O)nc3)nn12 (stereo not shown) [Compound I28]    174 to 175 °C

Query: Name the reported melting point value associated with the compound CCc1cc(C(=O)N2CCCCCC2C)nc2cc(-c3ccc(NC(=O)NCC4CCCO4)cc3F)nn12 (stereo not shown) [Compound B1]
Result: 140 °C

====

Below: a set of entries, each annotated with reported melting point.

The cases that follow already have their melting point on record.
CCc1cc(C(=O)N2CCCCC[C@H]2C)nc2nc(-c3cccs3)nn12 (racemic)    162 to 163 °C
CC1CCCCCN1C(=O)c1cc(N(C)C)n2nc(-c3ccc(C(N)=O)cc3F)cc2n1 (stereo not drawn)    215 to 216 °C
CCc1cc(C(=O)N2CCCCC[C@H]2C)nc2cc(-c3ccc(C4CC=C(C(=O)O)CC4)cc3F)nn12 (mixture of isomers)    176.26 °C
CCc1cc(C(=O)N2CCCCCC2C)nc2c(Cl)c(-c3ccc(NC(=O)C4CC4)cc3F)nn12 (stereo not drawn)    245 to 250 °C
CCc1cc(C(=O)N2CCCCC[C@H]2C)nc2cc(-c3ccc4c(c3F)OC[C@@H](C(=O)O)C4)nn12 (racemic)    186.2 °C
CC1CCCCCN1C(=O)c1cc(N2CCCCC2)n2nc(-c3ccc(NC(=O)NCC4CCCO4)cc3)cc2n1 (stereo not drawn)    168 to 171 °C

Query: Name the reported melting point value associated with the compound C[C@@H]1CCCCCN1C(=O)c1cc(C2(C)CC2)n2nc(-c3ccc(C4C[C@H]4C(=O)O)cc3F)cc2n1 (mixture of isomers)
Result: 333.75 °C

Query: Repeat with CCOC(=O)Nc1ccc(-c2cc3nc(C(=O)N4CCCCCC4C)cc(CC)n3n2)cc1 (stereo not drawn)
Result: 195 to 200 °C

Query: Repeat with CCc1cc(C(=O)N2CCCCCC2C)nc2cc(-c3ccc(NS(C)(=O)=O)cc3F)nn12 (stereo not drawn) [Compound D1]
Result: 135 to 140 °C

Query: Repeat with CCc1cc(C(=O)N2CCCCCC2C)nc2cc(-c3ccc(-c4cccnc4)cc3F)nn12 (stereo not drawn)
Result: 167 to 168 °C

Query: Repeat with CCc1cc(C(=O)N2CCCCCC2C)nc2cc(-c3ccc(-c4cccnc4F)cc3F)nn12 (stereo not drawn)
Result: 86 to 87 °C

Query: Repeat with CCc1cc(C(=O)N2Cc3ccccc3CC2C)nc2cc(-c3ccc(C(=O)O)cc3F)nn12 (stereo not drawn)
Result: 150 to 155 °C

====

test: Cytotoxicity in HeLa cells, ATP content measured with the ATPlite kit; type: cell-based; conditions: human, TOX HELA pCC50
METRIC: CC50 at 3 days

CCc1cc(C(=O)N2CCCCCC2C)nc2cc(-c3ccc(C(=O)NC4CC4)cc3F)nn12 (stereo not shown) [Compound L1]    > 25.1 µM
CCc1cc(C(=O)N2CCCCC[C@H]2C)nc2cc(-c3ccc(NC4(C(=O)O)CC4)cc3F)nn12 [Compound W16]    > 100 µM
C[C@@H]1c2ccccc2CCN1C(=O)c1cc(C2(C)CC2)n2nc(-c3ccc(C4C[C@H]4C(=O)O)cc3F)cc2n1 (mixture of isomers) [Compound O8]    49 µM

Query: Name the reported CC50 at 3 days value associated with the compound CCc1cc(C(=O)N2CCCCCC2C)nc2cc(-c3ccc(N4C(=O)CCC4=O)cc3F)nn12 (stereo not shown) [Compound E26]
Result: > 25.1 µM

Query: Repeat with CC1CCCCCN1C(=O)c1cc(N2CCCC2)n2nc(-c3ccc(NC(=O)C4CC4)cc3)cc2n1 (stereo not shown) [Compound E17]
Result: > 50.1 µM

Query: Repeat with CCc1cc(C(=O)N2CCCCCC2C)nc2cc(-c3ccc(-c4c[nH]cn4)cc3F)nn12 (stereo not shown) [Compound F16]
Result: > 25.1 µM

Query: Repeat with C[C@@H]1CCCCCN1C(=O)c1cc(C2CCC2)n2nc(-c3ccc4c(c3F)OCC(C(=O)O)=C4)cc2n1 [Compound F39]
Result: 44.7 µM

====

Below: a set of entries, each annotated with reported melting point.
Field: numeric (°C). Do not append units.

CCc1cc(C(=O)N2CCc3ccccc3[C@H]2C)nc2cc(-c3ccc(-n4cc(C(=O)O)cn4)cc3F)nn12    144.43
CCc1cc(C(=O)N2CCCCC[C@H]2C)nc2cc(-c3ccc(C(=O)O)cc3F)nn12    148
C[C@@H]1c2ccccc2CCN1C(=O)c1cc(C2CC2)n2nc(-c3ccc(C4C[C@H]4C(=O)O)cc3F)cc2n1 (single isomer, unassigned)    222.18
C[C@@H]1c2ccccc2CCN1C(=O)c1cc(C2CC2)n2nc(-c3ccc(-n4cc(C(=O)O)cn4)cc3F)cc2n1    257.75
CCc1cc(C(=O)N2CCCCCC2C)nc2cc(-c3ccc(C(=O)NS(C)(=O)=O)cc3F)nn12 (stereo not drawn)    194
C[C@@H]1CCCCCN1C(=O)c1cc(C2(C)COC2)n2nc(-c3ccc(-n4cc(C(=O)O)cn4)cc3F)cc2n1 (racemic)    223.2
CCc1cc(C(=O)N2CCCCCC2C)nc2c(F)c(-c3ccc(C(N)=O)cc3F)nn12 (stereo not drawn)    173
C[C@@H]1CCCCCN1C(=O)c1cc(C2(C)CC2)n2nc(-c3ccc(-n4cc(C(=O)O)cn4)cc3F)cc2n1    239.85

Query: Name the reported melting point value associated with the molecule CCc1cc(C(=O)N2CCCCCC2C)nc2cc(-c3ccc(C(=O)NO)cc3F)nn12 (stereo not drawn)
Result: 180
